Each recorded value in this set is attributed to paper PMC12169614.

# Test system: Y71 SC5314
# TEST PROTOCOL: MIC80 determination, C. albicans clinical isolate Y71 SC5314
# Type: cell-based
# SETTINGS: Candida albicans, SC5314; supplement csv
Please respond with reported MIC for every item in the list.
Numbers only, in nM.

MOLECULE	TEST VALUE
O=C(NCC(O)(Cn1cncn1)c1ccc(F)cc1F)c1cccc(-c2ccc(OC(F)(F)F)cc2)c1 (centres unmarked)	85
O=C(NCC(O)(Cn1cncn1)c1ccc(F)cc1F)c1ccc2cc(F)ccc2c1 (centres unmarked)	18
O=C(NCC(O)(Cn1cncn1)c1ccc(F)cc1F)c1cccc(-c2ccc(C(F)(F)F)cc2)c1 (centres unmarked)	100
O=C(NCC(O)(Cn1cncn1)c1ccc(F)cc1F)c1ccc(-c2ccc(OC(F)(F)F)cc2)cc1 (centres unmarked)	40

In the following, a different molecule is considered.
# input molecule: O=C(NCC(O)(Cn1cncn1)c1ccc(F)cc1F)c1ccc(NC(=O)c2ccc(Cl)cc2)cc1 (centres unmarked) ; wanted: its MIC
208

---

# System: Y2747 OE AfCYP51B AfCPR AfERG6
# TEST PROTOCOL: MIC80 determination, strain Y2747
# Type: cell-based, S. cerevisiae
# SETTINGS: Aspergillus fumigatus, read-out: MIC (nM) A. fumigatus model Y2747
Please respond with reported MIC for every item in the list.
Numbers only, in nM.

COMPOUND	TARGET DESC	UNIT LABEL	MIC
O=C(NCC(O)(Cn1cncn1)c1ccc(F)cc1F)c1ccc(-c2ccc(OC(F)(F)F)cc2)cc1 (stereo not shown)	Y2747 OE AfCYP51B AfCPR AfERG6	nM	72
O=C(NCC(O)(Cn1cncn1)c1ccc(F)cc1F)c1ccc2cc(F)ccc2c1 (stereo not shown)	Y2747 OE AfCYP51B AfCPR AfERG6	nM	300
O=C(NCC(O)(Cn1cncn1)c1ccc(F)cc1F)c1cccc(-c2ccc(OC(F)(F)F)cc2)c1 (stereo not shown)	Y2747 OE AfCYP51B AfCPR AfERG6	nM	50

# input compound: O=C(NCC(O)(Cn1cncn1)c1ccc(F)cc1F)c1cccc(-c2ccc(C(F)(F)F)cc2)c1 (stereo not shown) ; wanted: its MIC
150

---

# Test system: Y2716 OE CpCYP51 Y132F
# TEST PROTOCOL: MIC80 determination, strain Y2716
# Assay type: cell-based, S. cerevisiae
# SETTINGS: MIC80 Y2716 versus Y2721
# Procedure: Cells were seeded at an OD600 nm of 0.005 (1.5 × 10^4 CFU), and the plates were incubated at 30 °C with shaking at 200 rpm for 48 h for S. cerevisiae strains and 24 h for C. albicans . Cell growth was assessed by measuring the OD600 nm using a Synergy 2 multimode plate reader (BioTek Instruments, VT, USA). Each MIC80 was determined using triplicate measurements for pools of 4 clones of each strain in three separate experiments.
READOUT LABEL: increase in resistance owing to the CpCYP51 Y132F mutation

Solved cases (3 shown):
MOLECULE	TEST VALUE
O=C(NCC(O)(Cn1cncn1)c1ccc(F)cc1F)c1cccc(-c2ccc(OC(F)(F)F)cc2)c1 (stereo not shown)	> 19 fold
O=C(NCC(O)(Cn1cncn1)c1ccc(F)cc1F)c1ccc(-c2ccc(OC(F)(F)F)cc2)cc1 (stereo not shown)	2 fold
O=C(NCC(O)(Cn1cncn1)c1ccc(F)cc1F)c1cccc(-c2ccc(C(F)(F)F)cc2)c1 (stereo not shown)	> 19 fold

# input molecule: O=C(NCC(O)(Cn1cncn1)c1ccc(F)cc1F)c1ccc2cc(F)ccc2c1 (stereo not shown) ; wanted: its increase in resistance owing to the CpCYP51 Y132F mutation
> 19 fold

---

Please respond with reported pIC50 for every item in the list.
# TARGET DESC: wild-type CaCYP51 (Candida albicans, UniProt P10613)
# Sequence (P10613 whole entry): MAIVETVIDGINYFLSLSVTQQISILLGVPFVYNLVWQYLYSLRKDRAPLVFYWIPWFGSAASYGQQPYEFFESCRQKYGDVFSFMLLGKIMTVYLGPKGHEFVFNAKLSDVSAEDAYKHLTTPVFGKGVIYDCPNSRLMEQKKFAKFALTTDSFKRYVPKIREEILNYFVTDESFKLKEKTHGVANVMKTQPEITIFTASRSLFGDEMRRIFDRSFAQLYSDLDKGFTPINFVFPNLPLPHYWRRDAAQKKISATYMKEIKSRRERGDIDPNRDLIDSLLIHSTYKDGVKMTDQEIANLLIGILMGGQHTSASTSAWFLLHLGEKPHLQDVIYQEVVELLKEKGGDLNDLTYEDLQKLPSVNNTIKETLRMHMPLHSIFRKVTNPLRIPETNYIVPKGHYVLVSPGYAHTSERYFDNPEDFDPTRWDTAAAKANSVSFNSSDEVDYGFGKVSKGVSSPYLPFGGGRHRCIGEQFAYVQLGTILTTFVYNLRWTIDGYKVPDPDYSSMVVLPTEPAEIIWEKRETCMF
Give bare numbers, as −log10 of the molar value.

COMPOUND	pIC50
O=C(NCC(O)(Cn1cncn1)c1ccc(F)cc1F)c1ccc(-c2ccc(OC(F)(F)F)cc2)cc1 (centres unmarked)	6.17

In the following, a different compound is considered.
Query pIC50 on wild-type CaCYP51 (Candida albicans, UniProt P10613) for OC(Cn1cncn1)(Cn1cncn1)c1ccc(F)cc1F [FLC, fluconazole, reference compound]
6.47

---

# System: Y2411 Endog. ScCYP51
# TEST PROTOCOL: MIC80 determination, strain Y2411
# Assay type: cell-based, S. cerevisiae
# SETTINGS: Saccharomyces cerevisiae; strain Y2411 Endog. ScCYP51; SD pH 6.8, 30 °C, 48 h
READOUT LABEL: MIC80 (µM)
Give bare numbers, in µM.

MOLECULE	UNIT LABEL	MIC80
O=C(NCC(O)(Cn1cncn1)c1ccc(F)cc1F)c1cccc(-c2ccc(C(F)(F)F)cc2)c1 (stereo not drawn)	µM	0.037
CC[C@@H]([C@H](C)O)n1ncn(-c2ccc(N3CCN(c4ccc(OC[C@@H]5CO[C@@](Cn6cncn6)(c6ccc(F)cc6F)C5)cc4)CC3)cc2)c1=O [PCZ, posaconazole, reference compound]	µM	0.097

In the following, a different molecule is considered.
Query MIC80 on Y2411 Endog. ScCYP51 for O=C(NCC(O)(Cn1cncn1)c1ccc(F)cc1F)c1ccc2cc(F)ccc2c1 (stereo not drawn)
0.015

---

# Tested on: Y2411 Endog. ScCYP51
# TEST PROTOCOL: MIC80 determination, strain Y2411
# Format: cell-based, S. cerevisiae
# SETTINGS: Saccharomyces cerevisiae; supplement csv; read-out: MIC (nM) S. cerevisiae Y2411
READOUT LABEL: MIC (nM)
Answers are plain numbers, in nM.

Solved cases (4 shown):
MOLECULE	READOUT LABEL	UNIT LABEL	TEST VALUE
O=C(NCC(O)(Cn1cncn1)c1ccc(F)cc1F)c1cccc(-c2ccc(C(F)(F)F)cc2)c1 (centres unmarked) [Compound 23]	MIC	nM	37
O=C(NCC(O)(Cn1cncn1)c1ccc(F)cc1F)c1ccc(NC(=O)c2ccc(Cl)cc2)cc1 (centres unmarked) [Compound 26]	MIC	nM	39
O=C(NCC(O)(Cn1cncn1)c1ccc(F)cc1F)c1ccc(-c2ccc(OC(F)(F)F)cc2)cc1 (centres unmarked) [Compound 22]	MIC	nM	30
O=C(NCC(O)(Cn1cncn1)c1ccc(F)cc1F)c1ccc2cc(F)ccc2c1 (centres unmarked) [Compound 14]	MIC	nM	15

# input molecule: O=C(NCC(O)(Cn1cncn1)c1ccc(F)cc1F)c1cccc(-c2ccc(OC(F)(F)F)cc2)c1 (centres unmarked) [Compound 24] ; wanted: its MIC
30

---

# System: Y2300 OE ScCYP51
# TEST PROTOCOL: MIC80 determination, strain Y2300
# Format: cell-based, S. cerevisiae
# SETTINGS: Saccharomyces cerevisiae, 48 h, pH 6.8
READOUT LABEL: MIC80 (µM)
Answers are plain numbers, in µM.

Solved cases (5 shown):
MOLECULE	UNIT LABEL	TEST VALUE
CC[C@@H]([C@H](C)O)n1ncn(-c2ccc(N3CCN(c4ccc(OC[C@@H]5CO[C@@](Cn6cncn6)(c6ccc(F)cc6F)C5)cc4)CC3)cc2)c1=O [PCZ, posaconazole, reference compound]	µM	2
O=C(NCC(O)(Cn1cncn1)c1ccc(F)cc1F)c1ccc2cc(F)ccc2c1 (stereo not drawn) [Compound 14]	µM	0.048
O=C(NCC(O)(Cn1cncn1)c1ccc(F)cc1F)c1ccc(-c2ccc(OC(F)(F)F)cc2)cc1 (stereo not drawn) [Compound 22]	µM	0.114
O=C(NCC(O)(Cn1cncn1)c1ccc(F)cc1F)c1cccc(-c2ccc(C(F)(F)F)cc2)c1 (stereo not drawn) [Compound 23]	µM	0.069
O=C(NCC(O)(Cn1cncn1)c1ccc(F)cc1F)c1ccc(NC(=O)c2ccc(Cl)cc2)cc1 (stereo not drawn) [Compound 26]	µM	0.182

In the following, a different molecule is considered.
# input molecule: O=C(NCC(O)(Cn1cncn1)c1ccc(F)cc1F)c1cccc(-c2ccc(OC(F)(F)F)cc2)c1 (stereo not drawn) [Compound 24] ; wanted: its MIC80
0.163

---

Please respond with reported MIC80 for every item in the list.
# Tested on: Y525 OE CaMDR1a
# TEST PROTOCOL: MIC80 determination, strain Y525
# Format: cell-based, S. cerevisiae
# SETTINGS: Saccharomyces cerevisiae, 48 h, pH 6.8
Answers are plain numbers, in µM.

Solved cases (3 shown):
MOLECULE	TARGET DESC	UNIT LABEL	MIC80
O=C(NCC(O)(Cn1cncn1)c1ccc(F)cc1F)c1ccc(-c2ccc(OC(F)(F)F)cc2)cc1 (stereo not drawn)	Y525 OE CaMDR1a	µM	0.451
CC[C@@H]([C@H](C)O)n1ncn(-c2ccc(N3CCN(c4ccc(OC[C@@H]5CO[C@@](Cn6cncn6)(c6ccc(F)cc6F)C5)cc4)CC3)cc2)c1=O [PCZ, posaconazole, reference compound]	Y525 OE CaMDR1a	µM	0.218
O=C(NCC(O)(Cn1cncn1)c1ccc(F)cc1F)c1cccc(-c2ccc(OC(F)(F)F)cc2)c1 (stereo not drawn)	Y525 OE CaMDR1a	µM	0.43

In the following, a different molecule is considered.
# input molecule: O=C(NCC(O)(Cn1cncn1)c1ccc(F)cc1F)c1cccc(-c2ccc(C(F)(F)F)cc2)c1 (stereo not drawn) ; wanted: its MIC80
0.44
